- EXPERIMENTAL_TARGET: NADPH oxidase 4 (Homo sapiens) (UniProt Q9NPH5)
- Sequence (Q9NPH5 whole entry, looked up): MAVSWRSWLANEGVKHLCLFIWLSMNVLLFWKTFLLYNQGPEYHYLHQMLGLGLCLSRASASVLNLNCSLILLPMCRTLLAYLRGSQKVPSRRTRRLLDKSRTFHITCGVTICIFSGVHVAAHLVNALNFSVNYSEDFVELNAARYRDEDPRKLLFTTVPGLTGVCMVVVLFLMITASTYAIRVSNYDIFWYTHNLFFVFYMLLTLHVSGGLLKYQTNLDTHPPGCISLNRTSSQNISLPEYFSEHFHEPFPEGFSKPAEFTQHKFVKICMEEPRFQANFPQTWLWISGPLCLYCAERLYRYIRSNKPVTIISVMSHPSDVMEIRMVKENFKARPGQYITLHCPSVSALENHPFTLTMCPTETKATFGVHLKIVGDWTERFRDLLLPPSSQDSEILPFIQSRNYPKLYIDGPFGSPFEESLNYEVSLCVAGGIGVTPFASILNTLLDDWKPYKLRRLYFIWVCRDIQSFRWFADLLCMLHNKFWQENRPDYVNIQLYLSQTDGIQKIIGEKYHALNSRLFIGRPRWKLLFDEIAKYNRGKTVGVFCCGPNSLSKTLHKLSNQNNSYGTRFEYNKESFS
- PROTOCOL_DETAILS: compounds shifting NOX4 Amplex Red fluorescence – cell-based, HEK293-NOX4, tetracycline-induced, NOX inhibitor project, primary screen (AID 1160)
- CONDITION_DETAILS: HEK293-NOX4, Amplex Red H2O2 fluorescence, 45 min; higher = more signal, called active from +8 up or from −8 down
This listing pairs compounds with measured z-score.
REPORTED_PROPERTY: z-score

# COMPOUND, REPORTED
rows = [
    ("[N-]=[N+]=NCc1ccccc1[C@H]1OC(c2ccc(OCCCO)cc2)=N[C@@]1(Cc1ccccc1N=[N+]=[N-])C(=O)N1CCCCC1", 0.328),
    ("CC(C)(C)N1CC=CC23O[C@@H]4C=CCCOC(=O)C4[C@H]2C(=O)N(CCCO)[C@@H]3C1=O (some centres not stated)", -2.02),
    ("COCCCNC(=O)[C@@]1(Cc2ccccc2)COC(c2ccc(OCCCO)cc2)=N1", 1.05),
    ("O=C(O)[C@@]1(Cc2ccccc2)COC(c2ccc(OCCCO)cc2)=N1", 0.432),
    ("O=C(O)[C@]1(CCS(=O)(=O)c2ccccc2)N=C(c2ccc(OCCCO)cc2)O[C@@H]1c1ccccc1", 0.578),
    ("CC(C)C[C@@H]1NC(=O)[C@@H]2C[C@H](C(=O)NCc3ccc(F)cc3)[C@H](c3ccc(O)cc3)N2C1=O", -0.106),
    ("COC(=O)C(CC#Cc1ccc2c(c1)[C@]1(C(=O)N2)[C@H](c2ccc(O)cc2)N2[C@H](c3ccccc3)[C@H](c3ccccc3)OC(=O)[C@H]2[C@@H]1C(N)=O)C(=O)OC", 0.356),
    ("COC(=O)C(CC#Cc1ccc2c(c1)[C@]1(C(=O)N2)[C@H](C(=O)N2CCc3cc(OC)c(OC)cc3C2)[C@H]2C(=O)O[C@H](c3ccccc3)[C@H](c3ccccc3)N2[C@@H]1c1ccc(OCCO)cc1)C(=O)OC", 0.487),
    ("CCOC(=O)C[C@H]1[C@H](OC(=O)c2cc3ccccc3oc2=O)[C@@H](NC(=O)c2ccc3ccccc3n2)c2cc(OCCCO)ccc2N1C(=O)c1ccc2ccccc2n1", 0.715),
    ("O=c1c2ccc(Br)cc2nc(-c2ccccc2)n1Cc1cccc(O)c1", -1.05),
    ("CC(C)(C)OC(=O)CC[C@@]1(C(=O)N2CCCCC2)N=C(c2ccc(OCCCO)cc2)O[C@@H]1c1ccccc1N=[N+]=[N-]", 1.03),
    ("COCCOC(=O)N1C(=O)[C@@]2(c3cc(C#CCCO)ccc31)[C@H](C(=O)NC[C@H](O)c1ccccc1)[C@H]1C(=O)O[C@H](c3ccccc3)[C@H](c3ccccc3)N1[C@@H]2c1ccccc1OCCO", 0.992),
    ("CC(C)(C)OC(=O)CC[C@]1(C(=O)O)COC(c2ccc(OCCCO)cc2)=N1", 0.624),
    ("Cc1ccc(F)cc1S(=O)(=O)N[C@@H]1CCN(C(=O)c2ccc(OC(C)C)cc2)C1", -0.0285),
    ("CC(C)(C)OC(=O)CC[C@]1(C(=O)N2CCCCC2)N=C(c2ccc(OCCCO)cc2)O[C@H]1c1ccccc1CN=[N+]=[N-]", 1.56),
    ("Cc1ccc(S[C@]2(C(=O)NCc3ccccc3)CC(=O)N(C3Cc4ccccc4C3)[C@@H]2c2ccc(CO)cc2I)cc1", -0.966),
    ("CC(C)c1ccc(NN2C(C(O)c3cccs3)C=CC3C(=O)N(c4ccccc4)C(=O)C32)cc1 (configuration not stated)", -3.51),
    ("O=C1C[C@@](C(=O)O)(c2ccc([N+](=O)[O-])cc2)[C@@H](c2ccc(CO)cc2)N1CC12CC3CC(CC(C3)C1)C2", -2.72),
    ("CC(C)c1ccc(NN2C(C(O)c3ccccn3)C=CC3C(=O)N(c4ccccc4)C(=O)C32)cc1 (configuration not stated)", -3.57),
    ("O=C1O[C@@H](c2ccccc2)[C@@H](c2ccccc2)N2[C@@H](c3ccc(O)cc3)[C@]3(C(=O)Nc4ccc(C#CC5=CCCCC5)cc43)[C@@H](C(=O)Nc3nc4ccccc4s3)[C@H]12", 0.617),
    ("COc1ccc([Si](C)(C)[C@@H]2[C@@H](CCO)O[C@]3(C(=O)N(Cc4ccccc4)c4ccc(N5CCCCC5=O)cc43)[C@H]2C)cc1", -0.278),
    ("CCCNC(=O)[C@@]1(Sc2ccc(C)cc2)CC(=O)N(Cc2ccccc2)[C@@H]1c1ccc(CO)cc1I", -1.94),
    ("NC(=O)NCC#Cc1ccc2c(c1)[C@]1(C(=O)N2)[C@H](c2ccc(OCCO)cc2)N2[C@H](c3ccccc3)[C@H](c3ccccc3)OC(=O)[C@H]2[C@@H]1C(=O)N1CCN(c2ncccn2)CC1", 1.48),
    ("COCCOC(=O)N1C(=O)[C@@]2(c3cc(C#CC4(O)CCCCCC4)ccc31)[C@H](C(=O)N1CCc3cc(OC)c(OC)cc3C1)[C@H]1C(=O)O[C@H](c3ccccc3)[C@H](c3ccccc3)N1[C@@H]2c1ccccc1OCCO", -0.879),
    ("C=C(COC)C(=O)CC[C@H](OC(=O)c1ccccc1-c1ccccc1C(=O)O)c1ccc(OCCO)cc1", -0.221),
    ("COc1cc2c(cc1OC)CN(C(=O)[C@@H]1[C@H]3C(=O)O[C@H](c4ccccc4)[C@H](c4ccccc4)N3[C@H](c3ccc(OCCO)cc3)[C@@]13C(=O)Nc1ccc(C#CCCO)cc13)CC2", -0.458),
    ("COc1cccc(C)c1NC(=O)O[C@H]1[C@H](OC(=O)Nc2ccccc2)[C@H](OC(=O)Nc2ccccc2)[C@@H](OC)O[C@@H]1CO", -0.91),
]

----------
In this section we review reported z-score values for a set of molecules.
- PROTOCOL_DETAILS: optical density change of DRC41 E. coli – strain DRC41, OD650, 24 h, E. coli filamentation project, primary screen (AID 1093);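 also: MC1000 strain lacking acrAB efflux and sulA so SOS filamentation is blocked; test concentration not given here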
- CONDITION_DETAILS: E. coli DRC41 growth, higher = more signal, called active from +8 up or from −8 down

# MOLECULE, z-score
measured = [
    ("C[N+](C)(C)CCCC[C@@H]1NC(=O)[C@H]2C[C@@H](C(=O)NCCCCCCN)[C@@H](c3cccc(OCCO)c3)N2C1=O", 0.27),
    ("COC(=O)[C@]1(Cc2ccccc2CN=[N+]=[N-])N=C(c2ccc(OCCCO)cc2)O[C@@H]1c1ccccc1CN=[N+]=[N-]", 2.08),
    ("COCCCNC(=O)[C@@]1(Cc2ccccc2)COC(c2ccc(OCCCO)cc2)=N1", 1.47),
    ("C=CCC(OC(C)=O)[C@@H]1[C@@H](N(Cc2ccc(-c3ccccc3)cc2)C(=O)Cc2ccc(OC)cc2)c2cc(OCCCO)ccc2N1C(=O)c1ccc(-c2ccccc2)cc1 (stereo partly drawn)", 1.23),
    ("O=[N+]([O-])c1ccc(C[n+]2ccc(-c3ccc(CO)cc3)cc2)o1", -0.818),
    ("CN(C)CCCCCCNC(=O)[C@@H]1C[C@@H]2C(=O)NCC(=O)N2[C@@H]1c1ccc(O)cc1", -0.427),
    ("CCCCC(=C=CC[C@H](O)c1ccccc1OCCO)C[C@H](O)c1ccccn1", 1.3),
    ("CN(C)C(=O)[C@@]1(CCC(=O)OC(C)(C)C)N=C(c2ccc(OCCCO)cc2)O[C@H]1c1ccccc1N=[N+]=[N-]", -0.0123),
]

----------
- EXPERIMENTAL_TARGET: Homeobox protein Hox-A13 (Mus musculus) (UniProt Q62424)
- Sequence (Q62424 whole entry, looked up): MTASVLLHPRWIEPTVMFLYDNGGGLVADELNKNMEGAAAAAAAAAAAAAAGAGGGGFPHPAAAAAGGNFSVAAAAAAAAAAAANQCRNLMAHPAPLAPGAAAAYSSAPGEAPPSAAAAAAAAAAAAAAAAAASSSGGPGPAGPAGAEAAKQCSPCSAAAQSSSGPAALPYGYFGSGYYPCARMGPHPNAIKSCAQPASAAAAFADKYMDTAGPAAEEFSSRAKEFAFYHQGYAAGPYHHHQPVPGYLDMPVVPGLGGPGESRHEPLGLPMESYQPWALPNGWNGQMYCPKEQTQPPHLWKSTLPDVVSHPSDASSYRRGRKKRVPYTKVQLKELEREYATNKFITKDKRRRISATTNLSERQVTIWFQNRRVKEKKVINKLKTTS
- PROTOCOL_DETAILS: disruptors of Hoxa13 oligonucleotide interaction – biochemical, fluorescence polarization, labeled oligonucleotide, primary screen (AID 1185)
- CONDITION_DETAILS: Hoxa13:DNA binding, 15 min, higher = more signal, called active from +8 up or from −8 down

# MOLECULE, z-score
data = [
    ("CCOC(=O)C1=CCC(c2cccc(Cl)c2)O1 (configuration not stated)", -0.834),
    ("[N-]=[N+]=NCc1ccccc1[C@H]1OC(c2ccc(OCCCO)cc2)=N[C@@]1(Cc1ccccc1)C(N)=O", -3.61),
    ("CC(C)C[C@H]1NC(=O)[C@H](C)NC(=O)[C@@]23C(=O)N[C@@H](Cc4ccccc4)C2[C@H](C)[C@@]2(C)O[C@H]2C3/C=C/C/C=C\\CNC1=O (some centres not stated)", -6.14),
    ("COCCOC(=O)N1C(=O)[C@@]2(c3cc(C#CCC(C(=O)OC)C(=O)OC)ccc31)[C@H](C(=O)N1CCCCCCC1)[C@H]1C(=O)O[C@H](c3ccccc3)[C@H](c3ccccc3)N1[C@@H]2c1ccc(O)cc1", -0.454),
    ("COC(=O)[C@@]1(Cc2ccc(F)cc2)[C@@H]2[C@@H](CC(=O)[C@H]2CC(=O)C(=O)N2CCCC2)CN1C(=O)c1ccccc1", -2.66),
    ("CCOC(=O)C[C@H]1[C@H](OC(=O)Cc2ccc3c(c2)OCO3)[C@@H](NC(=O)c2ccccc2)c2cc(OCCCO)ccc2N1C(=O)c1ccc2ccccc2n1", -3.68),
    ("C[C@@]1([C@@H](NC(=O)c2cccs2)c2ccc(-c3ccccc3)cc2)C[C@H]1C1CCCCC1", -0.431),
    ("C[C@H]1ON(c2ccccc2)[C@@H](c2ccccc2)[C@@H]1C(=O)N1C(=O)OC[C@@H]1c1ccccc1", -2.12),
    ("COC(=O)[C@@]1(Cc2ccccc2)[C@H]2c3cc(C(=O)N(C)C)n(Cc4ccccn4)c3C[C@H]2CN1C(=O)c1ccccc1", -4.92),
    ("C=C(C)[C@@H]1CC=C(C(O)C2C=CC3C(=O)N(C4CCCCC4)C(=O)C3N2Nc2ccc(OC)cc2)CC1 (some centres not stated)", -3.47),
    ("Cc1ccccc1C(O)C1C=CC2C(=O)N(Cc3ccccc3)C(=O)C2N1n1cnnc1 (configuration not stated)", -3.23),
    ("COCC(=C=CC[C@@H](O)c1ccccc1OCCO)C[C@@H](O)c1ccccn1", -6.18),
    ("Cc1ccc(S[C@]2(C(=O)O)CC(=O)N(Cc3ccccc3C(F)(F)F)[C@@H]2c2ccc(CO)cc2)cc1", -3.21),
    ("[N-]=[N+]=NCc1ccccc1[C@H]1OC(c2ccc(OCCCO)cc2)=N[C@@]1(Cc1ccccc1N=[N+]=[N-])C(=O)N1CCCCC1", -0.972),
    ("C=C(/C(=C/C[C@@H](OC(=O)c1ccncc1)c1cccc(OCCO)c1)c1cc(C(=O)OC)ccc1OC)C(C)C", -3.8),
    ("O=C(N1CCOCC1)[C@@]1(CCS(=O)(=O)c2ccccc2)COC(c2ccc(OCCCO)cc2)=N1", -5.88),
    ("C=CC[C@]1(C(=O)NCC(O)CO)N=C(c2ccc(OCCCO)cc2)O[C@H]1c1ccccc1N=[N+]=[N-] (some centres not stated)", -3.71),
    ("CC[C@@H]1[C@@H]2C3C(=O)N(CC)C(=O)C3CC(=O)[C@@H]2[C@H](c2ccc(C)cc2)N1S(=O)(=O)c1ccc(C)cc1 (some centres not stated)", -3.54),
    ("CCCCC(CC)C(O)C1C=CC2C(=O)NC(=O)C2N1Nc1ccccn1 (configuration not stated)", -3.87),
    ("COCCOC(=O)N1C(=O)[C@@]2(c3ccccc31)[C@H](c1ccccc1OCCO)N1[C@H](c3ccccc3)[C@H](c3ccccc3)OC(=O)[C@H]1[C@@H]2C(=O)N1CCc2cc(OC)c(OC)cc2C1", -2.43),
    ("C=CCC(OC(C)=O)[C@@H]1[C@@H](N(Cc2ccc(-c3cccc(C(F)(F)F)c3)o2)C(=O)c2cccc3ccccc23)c2cc(OCCCO)ccc2N1C(=O)c1ccc(-c2ccccc2)cc1 (some centres not stated)", -2.39),
    ("Cc1cc(C)c(C(O)C2C=CC3C(=O)N(c4ccccc4)C(=O)C3N2Nc2ccccc2)c(C)c1 (configuration not stated)", -3.33),
]
